- System: green foxtail (Setaria viridis)
- ASSAY_NOTES: Test B pre-/postemergence plant response
- Format: in vivo
- STATED_CONDITIONS: Postemergence, 31 g ai/ha; scale 0 to 100
RECORDED_ENDPOINT: Plant response rating, Foxtail, Green
Give bare numbers.

Completed entries (count: 4):
Cn1ncc(O)c(-n2nc(-c3ccc(Cl)cc3)cc2C2CC2)c1=O	100
COc1nn(C)c(=O)c(-n2nc(-c3ccc(Br)cc3)cc2C)c1O	100
CCc1c(C)c(-c2ccc(Br)cc2)nn1-c1c(O)cnn(C)c1=O	98
Cc1nn(C)c(=O)c(-n2nc(-c3ccc(Cl)cc3)cc2Cl)c1O	90

*Q* Request the reported Plant response rating, Foxtail, Green associated with "Cc1cc(-c2ccc(Cl)cc2)nn1-c1c(OC(=O)Oc2ccccc2)cnn(C)c1=O"
*A* 95

====

So I've got a bunch of compounds here, and I need their Plant response rating, Soybean values.
- Test system: soybean (Glycine max)
- ASSAY_NOTES: Test B pre-/postemergence plant response
- Type: in vivo
- STATED_CONDITIONS: Postemergence, 62 g ai/ha; scale 0 to 100, 0 no effect, 100 complete control
Numbers only.

Sample answers from the record:
Cc1cc(-c2ccc(Cl)cc2)nn1-c1c(OC(=O)c2ccccc2Cl)cnn(C)c1=O	0
Cc1cc(-c2ccc(Cl)cc2)nn1-c1c(OC(=O)c2cccc(Cl)c2)cnn(C)c1=O	0
Cn1ncc(O)c(-n2nc(-c3ccc(Cl)cc3)cc2C2CC2)c1=O	0
Cc1cc(-c2ccc(Cl)cc2)nn1-c1c(OC(=O)CC(C)C)cnn(C)c1=O	0

Now consider a different compound.
*Q* Please report the recorded Plant response rating, Soybean for "COc1nn(C)c(=O)c(-n2nc(-c3ccc(Br)cc3)cc2C)c1O" .
*A* 70

====

- Test system: giant foxtail (Setaria faberii)
- ASSAY_NOTES: Test B pre-/postemergence plant response
- Assay type: in vivo
- STATED_CONDITIONS: Preemergence, 31 g ai/ha; 0 to 100 scale, 0 no effect, 100 complete control
Exercise: state measured Plant response rating, Foxtail, Giant for each of the compounds provided.
One number for each entry.

Solved entries (count: 3):
Cc1cc(-c2ccc(C(F)(F)F)cc2)nn1-c1c(O)c(C(C)C)nn(C)c1=O	0
CCc1cc(-c2ccc(C(F)(F)F)cc2)nn1-c1c(OC(=O)OC(C)C)cnn(C)c1=O	100
CCc1cc(-c2ccc(C(F)(F)F)cc2)nn1-c1c(O)c(C)nn(C)c1=O	0

Would you kindly look at the next entry?
*Q* Name the recorded Plant response rating, Foxtail, Giant for "Cc1ccc(-c2ccc(Cl)cc2)cc1-c1c(O)cnn(C)c1=O" .
*A* 95

====

Would you mind telling me the reported Blackgrass plant response rating of each entry?
- System: blackgrass (Alopecurus myosuroides)
- ASSAY_NOTES: Test B pre-/postemergence plant response
- Assay type: in vivo
- STATED_CONDITIONS: 8 g ai/ha, postemergence; 0-100 scale
Answers are plain numbers.

Before answering, review these 4 worked examples.
CCCc1cc(-c2ccc(Cl)cc2)nn1-c1c(O)cnn(C)c1=O	85
CCCC(=O)Oc1cnn(C)c(=O)c1-n1nc(-c2ccc(Cl)cc2)cc1C	0
Cn1ncc(O)c(-n2nc(-c3ccc(Cl)cc3)cc2C2CC2)c1=O	0
Cc1cc(-c2ccc(Cl)cc2)nn1-c1c(OC(=O)c2cccs2)cnn(C)c1=O	50

// for each compound below, give its Blackgrass plant response rating
1. CCc1cc(-c2ccc(C(F)(F)F)cc2)nn1-c1c(O)c(OC)nn(C)c1=O
2. Cc1cc(-c2ccc(Cl)cc2)nn1-c1c(OC(=O)c2cccc(Cl)c2)cnn(C)c1=O

*A*
90
30

====

- Test system: Italian ryegrass (Lolium multiflorum)
- ASSAY_NOTES: Test B pre-/postemergence plant response
- Type: in vivo
- STATED_CONDITIONS: Postemergence, 31 g ai/ha; scale 0 to 100, 0 no effect, 100 complete control
RECORDED_ENDPOINT: Plant response rating, Ryegrass, Italian
Give bare numbers.

CCc1cc(-c2ccc(C(F)(F)F)cc2)nn1-c1c(OC(=O)OC(C)C)cnn(C)c1=O	100
CCc1cc(-c2ccc(C(F)(F)F)cc2)nn1-c1c(O)c(C)nn(C)c1=O	100
Cc1cc(-c2ccc(C(F)(F)F)c(F)c2)nn1-c1c(O)c(C(F)(F)F)nn(C)c1=O	100

Next molecule, please.
*Q* API: value(readout= Plant response rating, Ryegrass, Italian, system= Italian ryegrass (Lolium multiflorum), query= "Cc1cc(-c2ccc(Cl)cc2)nn1-c1c(OC(=O)c2cccc(Cl)c2)cnn(C)c1=O" )
*A* 95

====

- Test system: green foxtail (Setaria viridis)
- ASSAY_NOTES: Test C pre-/postemergence plant response
- Format: in vivo
- STATED_CONDITIONS: Preemergence, 8 g ai/ha; scale 0 to 100 (0 no effect, 100 complete control)
RECORDED_ENDPOINT: Plant response rating, Foxtail, Green
One number for each entry.

CCCc1cc(-c2ccc(Cl)cc2)nn1-c1c(O)cnn(C)c1=O [Compound 43]	75

I need Plant response rating, Foxtail, Green for every entry listed below, if you could help.
1. Cc1cc(-c2ccc(Cl)cc2)nn1-c1c(OS(=O)(=O)c2ccccc2)cnn(C)c1=O [Compound 35]
2. CCc1cc(-c2ccc(Cl)cc2)nn1-c1c(O)cnn(C)c1=O [Compound 21]
3. Cc1cc(-c2ccc(Cl)cc2)nn1-c1c(OC(=O)Oc2ccccc2)cnn(C)c1=O [Compound 54]

*A*
1. 15
2. 50
3. 40

====

- System: windgrass (Apera spica-venti)
- ASSAY_NOTES: Test C pre-/postemergence plant response
- Type: in vivo
- STATED_CONDITIONS: Preemergence, 62 g ai/ha; scale 0 to 100, 0 no effect, 100 complete control
RECORDED_ENDPOINT: Plant response rating, Windgrass
Answers are plain numbers.

Recorded results for 3 molecules are shown here.
CCCc1cc(-c2ccc(Cl)cc2)nn1-c1c(O)cnn(C)c1=O	100
Cc1cc(-c2ccc(C(F)(F)F)c(F)c2)nn1-c1c(O)c(C(F)(F)F)nn(C)c1=O	100
Cc1cc(-c2ccc(Cl)cc2)nn1-c1c(OS(=O)(=O)c2cccc3ccccc23)cnn(C)c1=O	65

Please find the next molecule below.
*Q* If you can, please state the reported Plant response rating, Windgrass value of "Cc1cc(-c2ccc(Cl)cc2)nn1-c1c(OC(=O)CC(C)C)cnn(C)c1=O" .
*A* 80

====

Would you kindly list Plant response rating, Bermudagrass for each of these compounds?
- System: bermudagrass (Cynodon dactylon)
- ASSAY_NOTES: Test B pre-/postemergence plant response
- Format: in vivo
- STATED_CONDITIONS: Postemergence, 62 g ai/ha; scale 0 to 100, 0 no effect, 100 complete control
Give bare numbers.

// below: answered compounds
Cn1ncc(O)c(-n2nc(-c3ccc(Cl)cc3)cc2C2CC2)c1=O [Compound 45]	98
Cc1cc(-c2ccc(Cl)cc2)nn1-c1c(OC(=O)c2cccs2)cnn(C)c1=O [Compound 52]	100
Cc1cc(-c2ccc(Cl)cc2)nn1-c1c(OS(=O)(=O)c2ccccc2)cnn(C)c1=O [Compound 35]	100

*Q* Value lookup for Plant response rating, Bermudagrass; key = CCc1c(C)c(-c2ccc(Br)cc2)nn1-c1c(O)cnn(C)c1=O [Compound 83]
*A* 90

====

- Tested on: common ragweed (Ambrosia elation)
- ASSAY_NOTES: Test B pre-/postemergence plant response
- Assay type: in vivo
- STATED_CONDITIONS: Postemergence, 31 g ai/ha; scale 0 to 100, 0 no effect, 100 complete control
Provide the recorded Plant response rating, Ragweed for the entries that follow.
Answers are plain numbers.

Cc1cc(-c2ccc(Cl)cc2)nn1-c1c(OS(=O)(=O)c2ccccc2)cnn(C)c1=O	0
CCCc1cc(-c2ccc(Cl)cc2)nn1-c1c(O)cnn(C)c1=O	0
Cc1cc(-c2ccc(Br)cc2)nn1-c1c(OC(=O)C2CC2)cnn(C)c1=O	0

Next, consider the following compound.
*Q* Which Plant response rating, Ragweed is reported for this compound? "Cc1cc(-c2ccc(Cl)cc2)nn1-c1c(OC(=O)c2cccc(Cl)c2)cnn(C)c1=O"
*A* 0

====

Give Plant response rating, Canarygrass for every item shown.
- System: canarygrass (Phalaris minor)
- ASSAY_NOTES: Test B postemergence plant response
- Assay type: in vivo
- STATED_CONDITIONS: Postemergence, 31 g ai/ha; scale 0 to 100
Answers are plain numbers.

Cc1cc(-c2ccc(Cl)cc2)nn1-c1c(OC(=O)c2cccs2)cnn(C)c1=O [Compound 52]	0
CCCc1cc(-c2ccc(Cl)cc2)nn1-c1c(O)cnn(C)c1=O [Compound 76]	90
CCc1cc(-c2ccc(Br)cc2)nn1-c1c(O)cnn(CC(F)(F)F)c1=O [Compound 73]	90
CCc1cc(-c2ccc(Br)cc2)nn1-c1c(O)c(C)nn(C)c1=O [Compound 74]	100

The record that follows has no Plant response rating, Canarygrass shown yet.
*Q* Given the compound Cc1nn(C)c(=O)c(-c2nc(-c3ccc(Cl)cc3)sc2C)c1O [Compound 79] , what is its reported Plant response rating, Canarygrass?
*A* 85
